# study_system: HLA-B*18:01
# protocol_notes: IEDB peptide-MHC binding, purified MHC/competitive/radioactivity; filed as Kd, often an IC50 or EC50 that approximates it; bounds were set here for any values at or beyond the usual limits of such assays
# measurement_parameters: source organism: SARS coronavirus Tor2
value_kind: Kd

Here are 3 sequences together with their reported answers.
- residue_string: "REAPAHVST"
  Kd: "5.19 µM"
- residue_string: "REEAIRHVRA"
  Kd: "≥ 70.5 µM"
- residue_string: "KEEILGTVSW"
  Kd: "0.468 µM"

I would be grateful if you could provide Kd for each of the following entries.
1. MEAQFLYLYA
2. AEVQIDRLIT
3. RELHLSWEVG
4. FDAWFSQRGG
5. RELHLSWEV
6. IDFYLCFLAF
7. FELLNAPAT
8. DESASKSASV

A)
["0.351 µM", "≥ 25.9 µM", "1.59 µM", "≥ 70.5 µM", "0.0788 µM", "1.56 µM", "0.303 µM", "3.78 µM"]

* * *

# study_system: HLA-B*08:01
# protocol_notes: IEDB peptide-MHC binding, purified MHC/direct/fluorescence; filed as Kd, often an IC50 or EC50 that approximates it; bounds were set here for any values at or beyond the usual limits of such assays
# measurement_parameters: source organism: Pseudomonas aeruginosa
value_kind: Kd

Q) Record request: Kd value, item ALEPGFKDY
A) ≥ 20 µM

* * *

# study_system: HLA-B*39:01
# protocol_notes: IEDB peptide-MHC binding, purified MHC/competitive/fluorescence; filed as Kd, often an IC50 or EC50 that approximates it; bounds were set here for any values at or beyond the usual limits of such assays
# measurement_parameters: source organism: Bacillus anthracis str. A0488
value_kind: Kd (nM)
One number for each entry, in nM.

Q) Record request: Kd value, item MQESGVSKL
A) 11.4

* * *

# study_system: HLA-B*44:02
# protocol_notes: IEDB peptide-MHC binding, purified MHC/competitive/radioactivity; filed as Kd, often an IC50 or EC50 that approximates it; bounds were set here for any values at or beyond the usual limits of such assays
# measurement_parameters: source organism: Dengue virus 2 Jamaica/1409/1983
pKd: −log10 of the molar value.
Assign class by pKd: not lower than 6 means 1.0; lower than 6 means 0.0.

Observe how each entry below is paired with its result.
- residue_string: "IESALNDTW"
  class: 1.0
- residue_string: "SRNSTHEMYW"
  class: 0.0
- residue_string: "HEWMTTEDM"
  class: 0.0
- residue_string: "EEEEAGVLW"
  class: 1.0

Kindly review the next sequence as well.
Q) For this sequence, is measured pKd 6 or higher? SEMIIPKNF
A) 1.0

* * *

# study_system: HLA-A*24:02
# protocol_notes: IEDB peptide-MHC binding, purified MHC/competitive/radioactivity; filed as Kd, often an IC50 or EC50 that approximates it; bounds were set here for any values at or beyond the usual limits of such assays
# measurement_parameters: source organism: Dengue virus 3 Martinique/1243/1999
value_kind: pKd
One number for each entry, as −log10 of the molar value.

Q) Record request: pKd value, item WMVHRQWFF
A) 6.08

* * *

# study_system: HLA-A*02:12
# protocol_notes: IEDB peptide-MHC binding, purified MHC/competitive/fluorescence; filed as Kd, often an IC50 or EC50 that approximates it; bounds were set here for any values at or beyond the usual limits of such assays
# measurement_parameters: source organism: Human immunodeficiency virus 1
value_kind: pKd
Give bare numbers, as −log10 of the molar value.

I would be grateful if you could provide pKd for each of the following entries.
1. AIIRILQQL
2. SLADQLIHL

A)
1: 7.96; 2: 8.55
